Measured values drawn from patent US20100210649A1 for this set.

Below: a set of entries, each annotated with reported IC50 at 72 h.
Test Details: in vitro
Condition: human, CytoTox (uM) NHBE
State just the number; it will be interpreted in µM.

For orientation, consider the following solved cases.
| Compound Structure String | Unit Descriptor | IC50 at 72 h |
| --- | --- | --- |
| O=c1c(Cl)c(Cl)cnn1-c1ccc2c(c1)OCCO2 | µM | 1.56 |
| COc1nn(-c2cccc(C)c2)c(=O)c(Cl)c1Cl | µM | 5.24 |
| NCCCOc1cccc(-n2ncc(Br)c(Br)c2=O)c1 | µM | 2.94 |

Recorded IC50 at 72 h for `O=c1c(Cl)c(Cl)cnn1Cc1ccccc1` , please?
7.32

* * *

Below: a set of entries, each annotated with reported inhibition at 10 µM.
System: H1650
Test Details: Non Small Cell Lung Cancer proliferation assay (Alamar Blue reduction), H1650
Type: cell-based, human
Condition: Homo sapiens, NCI-H1650; primary screening; 10 μM compound in 1% DMSO (v/v); read-out: percentage inhibition H1650
State just the number; it will be interpreted in %.

For orientation, consider the following solved cases.
| Compound Structure String | Measured On | Unit Descriptor | inhibition at 10 µM |
| --- | --- | --- | --- |
| O=c1ccc(Cl)nn1-c1ccccc1 | H1650 | % | -4 |
| O=c1c(Br)c(-n2cc(CO)nn2)cnn1-c1ccccc1 | H1650 | % | 103 |
| O=c1c(Cl)c(SC(c2ccccc2)c2ccccc2)cnn1-c1ccccc1 | H1650 | % | -3 |
| O=c1c(SCc2ccccc2)c(SCc2ccccc2)cnn1-c1ccccc1 | H1650 | % | -6 |
| O=c1c(Cl)c(Cl)c(Cl)nn1-c1ccc(Br)cc1 | H1650 | % | 48 |

Recorded inhibition at 10 µM for `NCCOc1cnn(-c2ccccc2Cl)c(=O)c1Cl` , please?
-9

Recorded inhibition at 10 µM for `CCSc1cnn(-c2ccccc2)c(=O)c1Cl` , please?
-15

Recorded inhibition at 10 µM for `CCOc1c(Cl)cnn(-c2ccccc2)c1=O` , please?
-13

Recorded inhibition at 10 µM for `O=c1c(Cl)c(Cl)c(O)nn1-c1ccccc1` , please?
6

Recorded inhibition at 10 µM for `O=C(O)c1ccc(-n2ncc(Cl)c(Cl)c2=O)cc1` , please?
11

* * *

Tested on: H2030
Test Details: Non Small Cell Lung Cancer proliferation assay (Alamar Blue reduction), H2030
Format: cell-based, human
Condition: Homo sapiens, NCI-H2030; primary screening; 10 μM compound in 1% DMSO (v/v); read-out: percentage inhibition H2030
Reported Metric: inhibition at 10 µM (%)
State just the number; it will be interpreted in %.

For orientation, consider the following solved cases.
| Compound | Measured Result |
| --- | --- |
| Cc1c(C(=O)NN)nn(-c2ccccc2)c(=O)c1C#N [compound 194841] | -9 |
| COc1cnn(-c2ccccc2)c(=O)c1SCc1ccc(Cl)cc1Cl [compound 208701] | 7 |
| CC(C)Oc1c(S)cnn(-c2ccccc2)c1=O [compound 213495] | -5 |
| Cc1ccc(C(C)C)c(OCC(=O)Oc2ccc(=O)n(-c3ccccc3)n2)c1 [compound 228706] | 5 |
| Cc1cc(-n2ccc3c(C#N)c(=O)n(-c4ccccc4)nc3c2=O)[nH]n1 [compound 216994] | 4 |
| O=c1c(Cl)c(Cl)c(O)nn1-c1ccccc1 [compound 103751] | -4 |

Recorded inhibition at 10 µM for O=C(O)c1ccc(-n2ncc(Cl)c(Cl)c2=O)cc1 [compound 197940] , please?
2

Recorded inhibition at 10 µM for COC(=O)NCCOc1cnn(-c2ccccc2)c(=O)c1 [compound 189493] , please?
-8

Recorded inhibition at 10 µM for N=c1c(-c2nc3ccccc3[nH]2)cc(C(=O)c2cccs2)nn1-c1ccccc1 [compound 186924] , please?
1

Recorded inhibition at 10 µM for Cc1ccc(C)c(Sc2cnn(-c3ccccc3)c(=O)c2Cl)c1 [compound 183339] , please?
-12

Recorded inhibition at 10 µM for Cc1cccc(-n2ncc(Cl)c(Cl)c2=O)c1 [compound 104122] , please?
101

* * *

Test system: H1650
Test Details: Non Small Cell Lung Cancer proliferation assay (Alamar Blue reduction), H1650
Assay type: cell-based, human
Condition: Homo sapiens, NCI-H1650; primary screening; 10 μM compound in 1% DMSO (v/v); read-out: percentage inhibition H1650
Below: a set of entries, each annotated with reported inhibition at 10 µM.
State just the number; it will be interpreted in %.

For orientation, consider the following solved cases.
| Compound Structure String | Unit Descriptor | inhibition at 10 µM |
| --- | --- | --- |
| COc1c(Cl)cnn(-c2cccc(C)c2)c1=O | % | -20 |
| CCOC(=O)NCCOc1cnn(-c2ccc(Cl)cc2)c(=O)c1Cl | % | -11 |
| Cc1c(C(=O)c2ccccc2)nn(-c2ccccc2Cl)c(=N)c1C#N | % | -16 |
| O=c1ccc(Cl)nn1-c1ccc(Br)cc1 | % | -20 |
| N=c1c(-c2nc3ccccc3[nH]2)cc(C(=O)c2cccs2)nn1-c1ccccc1 | % | 7 |

Recorded inhibition at 10 µM for `O=c1c(Sc2ccccc2)c(Sc2ccccc2)cnn1-c1ccccc1` , please?
8

Recorded inhibition at 10 µM for `CCCCSc1cnn(-c2ccccc2)c(=O)c1SCc1ccccc1` , please?
-2

Recorded inhibition at 10 µM for `O=c1c2c(cnn1-c1ccccc1)SCCS2` , please?
13

Recorded inhibition at 10 µM for `CN1CCN(c2cnn(-c3ccc(Cl)cc3)c(=O)c2Cl)CC1` , please?
-15

Recorded inhibition at 10 µM for `Cc1cccc(-n2nc(C(=O)c3ccco3)cc(-c3nc4ccccc4[nH]3)c2=N)c1` , please?
-2

Recorded inhibition at 10 µM for `CN(C)c1c(Cl)cnn(-c2ccccc2)c1=O` , please?
-7

Recorded inhibition at 10 µM for `COc1cnn(-c2ccccc2)c(=O)c1SCc1ccc(Cl)c(Cl)c1` , please?
10

Recorded inhibition at 10 µM for `COc1cnn(-c2ccc([N+](=O)[O-])cc2)c(=O)c1Cl` , please?
-21

Recorded inhibition at 10 µM for `COc1cnn(-c2ccccc2)c(=O)c1Cl` , please?
-12

Recorded inhibition at 10 µM for `O=c1c(N2CCCC2)c(Cl)cnn1-c1ccccc1` , please?
52

* * *

Test system: H2030
Test Details: Non Small Cell Lung Cancer proliferation assay (Alamar Blue reduction), H2030
Format: cell-based, human
Condition: Homo sapiens, NCI-H2030; primary screening; 10 μM compound in 1% DMSO (v/v); read-out: percentage inhibition H2030
Reported Metric: inhibition at 10 µM (%)
State just the number; it will be interpreted in %.

| Molecule | inhibition at 10 µM / % |
| --- | --- |
| O=c1c(SCc2ccc(Cl)cc2Cl)c(SC2CCCCO2)cnn1-c1ccccc1 (stereo not drawn) | 3 |
| COc1cnn(-c2ccc([N+](=O)[O-])cc2)c(=O)c1Cl | -3 |
| O=c1c(SCc2ccco2)c(SCc2ccco2)cnn1-c1ccccc1 | 9 |

Any idea what inhibition at 10 µM came out for `COc1ccc(-n2nc(Cl)ccc2=O)cc1` on H2030?
-12

Any idea what inhibition at 10 µM came out for `CCSc1cnn(-c2ccccc2)c(=O)c1SCC` on H2030?
-9

* * *

System: H1650
Test Details: Non Small Cell Lung Cancer proliferation assay (Alamar Blue reduction), H1650
Format: cell-based, human
Condition: Homo sapiens, NCI-H1650; primary screening; 10 μM compound in 1% DMSO (v/v); read-out: percentage inhibition H1650
Experimental: These cells have a doubling time of 1-2 days. All cell types are adherent and grow in colonies. The cells should be kept at a density between 50,000 cells/mL -500,000 cells/mL to provide for optimum growth and adequate nutrition. […] After drug treatment, cytotoxicity is measured by Alamar Blue reduction. […] The final step in the assay is to measure the amount of Alamar Blue reduction. […] The Alamar Blue fluorescence is measured at an excitation of 530 nm and emission of 590 nm. […]
Below: a set of entries, each annotated with reported inhibition at 10 µM.
Please answer using the number first and the unit second.

| Compound | inhibition at 10 µM |
| --- | --- |
| O=c1c(SCc2ccccc2)c(Cl)cnn1-c1ccccc1 | -20% |

Recorded inhibition at 10 µM for `COc1ccc(-n2nc(C(=O)c3ccco3)cc(-c3nc4ccccc4[nH]3)c2=N)cc1` , please?
8%

Recorded inhibition at 10 µM for `CCOC(=O)COc1cnn(-c2ccccc2)c(=O)c1Cl` , please?
-18%

Recorded inhibition at 10 µM for `O=c1c(Sc2ccc(Cl)cc2)cc(Cl)nn1-c1ccccc1` , please?
14%

Recorded inhibition at 10 µM for `COc1ccc(-n2nc(C(=O)c3cccs3)cc(-c3nc4ccccc4[nH]3)c2=N)cc1` , please?
6%

Recorded inhibition at 10 µM for `Cc1c(C(=O)NN)nn(-c2ccccc2)c(=O)c1C#N` , please?
-1%

Recorded inhibition at 10 µM for O=c1c(SCc2ccc(Cl)cc2)c(SC2CCCCO2)cnn1-c1ccccc1 (stereo not drawn) , please?
22%

Recorded inhibition at 10 µM for `O=c1c(Cl)c(Cl)cnn1-c1ccc([N+](=O)[O-])cc1` , please?
-13%

Recorded inhibition at 10 µM for `Cc1ccccc1-n1ncc(SCc2ccccc2)c(Cl)c1=O` , please?
7%
